Reference source: patent US12642270B2

- Assay Overview: Log P by HPLC on reversed phase columns (EEC directive 79/831 Annex V.A8)
- Type: physicochemical
- Assay Context: method [a]
Assay Metric: LogP

Compound	Assay Metric	Result Value
O=C(O)C1(NC(=S)c2sc(Br)c(Br)c2I)CC1	LogP	3.09^[a]
CCOC(=O)C(NC(=S)c1sc(Br)c(Br)c1F)C1CC1 (stereo not shown)	LogP	4.99^[a]
CCOC(=O)C(C)NC(=O)c1sc(Br)c(Br)c1F (stereo not shown)	LogP	3.41^[a]
CCOC(=O)C(NC(=O)c1sc(Cl)c(Br)c1C)C1CC1 (stereo not shown)	LogP	3.81^[a]
NC(=O)CNC(=O)c1sc(Cl)c(Cl)c1Br	LogP	1.98^[a]
CCSC(=O)C1(NC(=O)c2sc(Cl)c(Br)c2C)CC1	LogP	3.77^[a]
Cc1c(C(=O)NC2(C(=O)OC3CCC3)CC2)sc(Cl)c1Br	LogP	3.81^[a]
CCCOC(=O)C1(NC(=O)c2sc(Cl)c(Br)c2Br)CC1	LogP	3.98^[a]
O=C(NC1(C(=O)OC2CCCCC2)CCC1)c1sc(Br)c(Br)c1Cl	LogP	5.89^[a]
CCOC(=O)C1(NC(=O)c2sc(Cl)c(Br)c2Br)CCC1	LogP	4.24^[a]

---

- Assay Overview: Log P by HPLC on reversed phase columns (EEC directive 79/831 Annex V.A8)
- Format: physicochemical
- Assay Context: method [a]; compounds of formula (I), Table 1.1

Compound	LogP
CCOC(=O)C1(NC(=O)c2sc(I)c(Br)c2C)CC1	3.19^[a]
COC(=O)C1(NC(=O)c2sc(Br)c(Br)c2F)CCOC1 (racemic)	2.76^[a]
CCOC(=O)C(NC(=O)c1cc(C)c(Cl)s1)C(C)C (racemic)	3.48^[a]
CCOC(=O)CCNC(=O)c1sc(I)c(Br)c1C	3.17^[a]
CCOC(=O)CNC(=O)c1cc(Br)c(C#N)s1	2.16^[a]
CCOC(=O)C(NC(=O)c1sc(C#N)c(Br)c1C)C(C)C (racemic)	3.52^[a]
CCOC(=O)CNC(=O)c1sc(I)c(Br)c1C	3.02^[a]
CCOC(=O)CCNC(=O)c1sc(Cl)c(Br)c1C	3.15^[a]
COC(=O)C1(NC(=O)c2sc(Cl)c(Br)c2C)CSC1	3.29^[a]
CCOC(=O)C(Cc1ccccc1)NC(=O)c1cc(C)c(Cl)s1 (racemic)	3.73^[a]
CCOC(=O)C1(CNC(=O)c2sc(Br)c(Cl)c2C)CC1	3.75^[a]
CCOC(=O)C1(NC(=O)c2sc(Br)c(Cl)c2C)CC1	3.13^[a]
COC(=O)C1(NC(=O)c2sc(Br)c(Cl)c2C)CSC1	3.25^[a]
CCOC(=O)C1(NC(=O)c2sc(Cl)c(Br)c2C)CCC1	3.71^[a]
